test system: Staphylococcus aureus; experiment: Antibacterial activity against hospital-acquired methicillin-resistant Staphylococcus aureus 451/11 after 18 hrs by twofold serial agar dilution technique; type: functional; details: 451/11, 18 h

{"columns": ["compound", "tgt", "MIC (µg/mL)"],
 "data": [
  ["CC[C@@H](C(=O)[C@@H](C)[C@@H](O)[C@H](C)[C@@H]1O[C@@H]([C@@H](CC)C(=O)NCCCN2CCCCC2)CC[C@@H]1C)[C@H]1O[C@]2(C=C[C@@H](O)[C@]3(CC[C@@](C)([C@H]4CC[C@](O)(CC)[C@H](C)O4)O3)O2)[C@H](C)C[C@@H]1C", "Staphylococcus aureus", 32],
  ["CC[C@@]1([C@@H]2O[C@@H]([C@H]3O[C@@](O)(CO)[C@H](C)C[C@@H]3C)C[C@@H]2C)CC[C@H]([C@]2(C)CC[C@]3(C[C@H](O)[C@@H](C)[C@@H]([C@@H](C)[C@@H](OC)[C@H](C)C(=O)O)O3)O2)O1 [MONENSIN]", "Staphylococcus aureus", 4],
  ["CC[C@@H](C(=O)[C@@H](C)[C@@H](O)[C@H](C)[C@@H]1O[C@@H]([C@@H](CC)C(=O)O)CC[C@@H]1C)[C@H]1O[C@]2(C=C[C@@H](O)[C@]3(CC[C@@](C)([C@H]4CC[C@](O)(CC)[C@H](C)O4)O3)O2)[C@H](C)C[C@@H]1C [SALINOMYCIN]", "Staphylococcus aureus", 2],
  ["CC[C@@H](C(=O)[C@@H](C)[C@@H](O)[C@H](C)[C@@H]1O[C@@H]([C@@H](CC)C(=O)Nc2ccccc2)CC[C@@H]1C)[C@H]1O[C@]2(C=C[C@@H](O)[C@]3(CC[C@@](C)([C@H]4CC[C@](O)(CC)[C@H](C)O4)O3)O2)[C@H](C)C[C@@H]1C", "Staphylococcus aureus", 4]
]}

Measured values drawn from ChEMBL document CHEMBL2046376 for this set.
